- Test system: NB13 (Neuroblastoma)
- ASSAY_COMMENT: combination Emax (second highest fraction inhibited in the dose matrix, 72 h); higher = more inhibition; extreme values may be limits of the assay
combination Emax overview
The response must contain the number and no unit.

Would you please look over these solved cases?
{"COMPOUND": "Cc1c2c(nn1C)CSCc1cc(n(C)n1)CSc1cc(c3ccccc3c1)OCCCc1c(C(=O)O)n(C)c3c-2c(Cl)ccc13 [AZD5991] + Cn1cnc2c(F)c(Nc3ccc(Br)cc3Cl)c(C(=O)NOCCO)cc21 [Selumetinib] (first compound max 1 µM, 7x7, partner max 3 µM)", "combination Emax": 0.263}
{"COMPOUND": "C=CCn1c(=O)c2cnc(Nc3ccc(N4CCN(C)CC4)cc3)nc2n1-c1cccc(C(C)(C)O)n1 [AZD1775] + O=C(c1cc(Cc2n[nH]c(=O)c3ccccc23)ccc1F)N1CCN(C(=O)C2CC2)CC1 [Olaparib] (first compound max 1 µM, partner max 10 µM)", "combination Emax": 0.935}
{"COMPOUND": "COc1cccc(OCCCN)c1-c1cc(Nc2cnc(C#N)cn2)n[nH]1 [Prexasertib] + CCc1c2c(nc3ccc(O)cc13)-c1cc3c(c(=O)n1C2)COC(=O)[C@]3(O)CC [SN-38] (first compound max 1 µM, 7x7, partner max 0.3 µM)", "combination Emax": 0.962}

Looking for the measured combination Emax of C[C@@H](Oc1cc(-c2cnn(C3CCNCC3)c2)cnc1N)c1c(Cl)ccc(F)c1Cl [Crizotinib] + CC1=C(C(=CC=C1)Cl)NC(=O)C2=CN=C(S2)NC3=CC(=NC(=N3)C)N4CCN(CC4)CCO [Dasatinib] (first compound max 10 µM, 7x7, partner max 2 µM) , can you help?
0.801

Looking for the measured combination Emax of CCN(CCO)CCCOc1ccc2c(Nc3cc(CC(=O)Nc4cccc(F)c4)[nH]n3)ncnc2c1 [AZD2811] + C=CCn1c(=O)c2cnc(Nc3ccc(N4CCN(C)CC4)cc3)nc2n1-c1cccc(C(C)(C)O)n1 [AZD1775] (first compound max 1 µM, partner max 1 µM) , can you help?
0.924

###

- System: NB13 (Neuroblastoma)
- ASSAY_COMMENT: Bliss excess, mean over the matrix (fraction); higher = more synergy
VALUE_KIND: Bliss excess
The response must contain the number and no unit.

{"MOLECULE": "Cc1c2c(nn1C)CSCc1cc(n(C)n1)CSc1cc(c3ccccc3c1)OCCCc1c(C(=O)O)n(C)c3c-2c(Cl)ccc13 [AZD5991] + CN(C)CCCOc1ccc(-c2ccc3ncc4c(c3c2)n(C2CCOCC2)c(=O)n4C)cn1 [AZD0156] (first compound max 1 µM, 7x7, partner max 1 µM)", "Bliss excess": 0.0007}

Now let's try a different one.
Looking for the measured Bliss excess of CN(CCO)CC[C@H](CSc1ccccc1)Nc1ccc(S(=O)(=O)NC(=O)c2ccc(N3CCC([C@@H](O)c4ccccc4-c4ccc(Cl)cc4)CC3)cc2)cc1S(=O)(=O)C(F)(F)F [AZD4320] + Cn1cnc2c(F)c(Nc3ccc(Br)cc3Cl)c(C(=O)NOCCO)cc21 [Selumetinib] (first compound max 1 µM, 7x7, partner max 3 µM) , can you help?
0.0039

###

- Test system: DU-4475 (Breast Carcinoma)
- ASSAY_COMMENT: combination Emax (second highest fraction inhibited in the dose matrix, 72 h); higher = more inhibition; extreme values may be limits of the assay
VALUE_KIND: combination Emax
The response must contain the number and no unit.

Would you please look over these solved cases?
{"COMPOUND": "COc1cc2ncnc(Nc3ccc(F)c(Cl)c3)c2cc1OCCCN1CCOCC1 [Gefitinib] + CC(C)n1c(=O)n(C)c2cnc3cc(F)c(-c4ccc(OCCCN5CCCCC5)nc4)cc3c21 [AZD1390] (first compound max 10 µM, 7x7, partner max 0.3 µM)", "TGT": "DU-4475 (Breast Carcinoma)", "combination Emax": 0.157}
{"COMPOUND": "Cc1cc2ncnn2cc1Nc1ncc2c(n1)n(C1CCOCC1)c(=O)n2C [AZD7648] + CCN(CCO)CCCOc1ccc2c(Nc3cc(CC(=O)Nc4cccc(F)c4)[nH]n3)ncnc2c1 [AZD2811] (first compound max 10 µM, 7x7, partner max 1 µM)", "TGT": "DU-4475 (Breast Carcinoma)", "combination Emax": 0.23}
{"COMPOUND": "CN(CCO)CC[C@H](CSc1ccccc1)Nc1ccc(S(=O)(=O)NC(=O)c2ccc(N3CCC([C@@H](O)c4ccccc4-c4ccc(Cl)cc4)CC3)cc2)cc1S(=O)(=O)C(F)(F)F [AZD4320] + Cc1cc2ncnn2cc1Nc1ncc2c(n1)n(C1CCOCC1)c(=O)n2C [AZD7648] (first compound max 1 µM, 7x7, partner max 10 µM)", "TGT": "DU-4475 (Breast Carcinoma)", "combination Emax": 0.916}

Now let's try a different one.
Looking for the measured combination Emax of Cc1cc2ncnn2cc1Nc1ncc2c(n1)n(C1CCOCC1)c(=O)n2C [AZD7648] + C[C@@H]1COCCN1C2=NC(=NC(=C2)C3(CC3)[S@](=N)(=O)C)C4=C5C=CNC5=NC=C4 [AZD6738] (first compound max 10 µM, 7x7, partner max 10 µM) , can you help?
0.912
